system: P. aeruginosa PAO1 planktonic cells; experiment: MIC of antibiotics against planktonic cells, PAO1; type: cell-based, Pseudomonas aeruginosa; details: Pseudomonas aeruginosa, PAO1, read-out: MIC against planktonic cells in BM2 medium
Documented MIC across a set of compounds

[
  {
    "compound": "CC[C@H]1OC(=O)[C@H](C)[C@@H](O[C@H]2C[C@@](C)(OC)[C@@H](O)[C@H](C)O2)[C@H](C)[C@@H](O[C@@H]2O[C@H](C)C[C@H](N(C)C)[C@H]2O)[C@](C)(O)C[C@@H](C)CN(C)[C@H](C)[C@@H](O)[C@]1(C)O",
    "uom": "µg/mL",
    "inequality sign": "=",
    "MIC": 128
  },
  {
    "compound": "CCC[C@@H]1C[C@@H](C(=O)N[C@@H]([C@H]2O[C@H](SC)[C@H](O)[C@@H](O)[C@H]2O)[C@H](C)Cl)N(C)C1",
    "uom": "µg/mL",
    "inequality sign": ">",
    "MIC": 256
  },
  {
    "compound": "C[C@@H](O)[C@H]1C(=O)N2C(C(=O)O)=C(S[C@@H]3CN[C@H](C(=O)N(C)C)C3)[C@H](C)[C@H]12",
    "uom": "µg/mL",
    "inequality sign": "=",
    "MIC": 0.06
  },
  {
    "compound": "C/C(=C\\C(=O)OCCCCCCCCC(=O)O)C[C@@H]1OC[C@H](C[C@@H]2O[C@H]2[C@@H](C)[C@H](C)O)[C@@H](O)[C@H]1O",
    "uom": "µg/mL",
    "inequality sign": ">",
    "MIC": 128
  },
  {
    "compound": "[H]/N=C(\\N/C(=N/[H])NCCCCCCNC(=N)NC(=N)Nc1ccc(Cl)cc1)Nc1ccc(Cl)cc1",
    "uom": "µg/mL",
    "inequality sign": "=",
    "MIC": 4
  },
  {
    "compound": "CO/N=C(\\C(=O)N[C@@H]1C(=O)N2C(C(=O)[O-])=C(C[N+]3(C)CCCC3)CS[C@H]12)c1csc(N)n1 [Cefepime]",
    "uom": "µg/mL",
    "inequality sign": "=",
    "MIC": 0.5
  },
  {
    "compound": "COc1cc(Cc2cnc(N)nc2N)cc(OC)c1OC",
    "uom": "µg/mL",
    "inequality sign": "=",
    "MIC": 128
  },
  {
    "compound": "CC(C)(O/N=C(\\C(=O)N[C@@H]1C(=O)N2C(C(=O)[O-])=C(C[n+]3ccccc3)CS[C@H]12)c1csc(N)n1)C(=O)O",
    "uom": "µg/mL",
    "inequality sign": "=",
    "MIC": 2
  },
  {
    "compound": "NCC[C@H](O)C(=O)N[C@@H]1C[C@H](N)[C@@H](O[C@H]2O[C@H](CN)[C@@H](O)[C@H](O)[C@H]2O)[C@H](O)[C@H]1O[C@H]1O[C@H](CO)[C@@H](O)[C@H](N)[C@H]1O",
    "uom": "µg/mL",
    "inequality sign": "=",
    "MIC": 4
  }
]

---

In this section we review reported MIC values for a set of compounds.
test system: Staphylococcus epidermidis; experiment: MIC (broth microdilution) of peptides, S. epidermidis; type: cell-based; conditions: mode of three biological replicates
Where a SMILES comes first, the peptide text is derived from it. [ ]: non-standard residue; d: D form.
measure name: MIC (µg/mL)

[
  {
    "compound": "CC[C@@H](C)[C@@H](NC(=O)[C@@H](C)NC(=O)[C@@H](CCCNC(=N)N)NC(=O)[C@@H](CC(C)C)NC(=O)[C@@H](CCC(N)=O)NC(=O)[C@H](NC(=O)[C@@H](CCCNC(=N)N)NC(=O)[C@H](NC(=O)[C@H](NC(=O)[C@@H](CCCNC(=N)N)NC(=O)[C@H](NC(=O)[C@H](N)CCCNC(=N)N)C(C)C)C(C)C)[C@H](C)CC)C(C)C)C(N)=O [AB115-D, rvrvirvqlrai] (H-[dR][dV][dR][dV][dI][dR][dV][dQ][dL][dR][dA][dI]-NH2)",
    "result value": 0.8
  },
  {
    "compound": "CC[C@@H](C)[C@@H](NC(=O)[C@@H](C)NC(=O)[C@@H](CCCNC(=N)N)NC(=O)[C@@H](Cc1c[nH]c2ccccc12)NC(=O)[C@@H](CCC(N)=O)NC(=O)[C@H](NC(=O)[C@@H](CCCNC(=N)N)NC(=O)[C@H](NC(=O)[C@H](NC(=O)[C@@H](CCCNC(=N)N)NC(=O)[C@H](NC(=O)[C@H](N)CCCNC(=N)N)C(C)C)C(C)C)[C@H](C)CC)C(C)C)C(N)=O [AB103-D, rvrvirvqwrai-NH2] (H-[dR][dV][dR][dV][dI][dR][dV][dQ][dW][dR][dA][dI]-NH2)",
    "result value": 0.8
  },
  {
    "compound": "CC[C@@H](C)[C@@H](NC(=O)[C@@H](C)NC(=O)[C@@H](CCCNC(=N)N)NC(=O)[C@@H](Cc1c[nH]c2ccccc12)NC(=O)[C@@H](CCC(N)=O)NC(=O)[C@H](N)C(C)C)C(=O)N[C@H](CCCNC(=N)N)C(=O)N[C@@H](C(=O)N[C@H](CCCNC(=N)N)C(=O)N[C@@H](C(=O)N[C@@H](C(=O)N[C@H](CCCNC(=N)N)C(N)=O)[C@H](C)CC)C(C)C)C(C)C [DJK5, vqwrairvrvir-NH2] (H-[dV][dQ][dW][dR][dA][dI][dR][dV][dR][dV][dI][dR]-NH2)",
    "result value": 0.8
  }
]

Attribution: patent US20260374818A1
